system: DLD-1; assay: Chemosensitivity, 96 h continuous exposure, MTT assay; format: cell-based, human; details: IC50 MCF10A / IC50 DLD-1
recorded_metric: Selectivity index (MCF10A)

# compound, recorded_metric, value
measured = [
    ("CC(=O)[O-].CC(=O)[O-].CC(=O)[O-].CC(=O)[O-].CC(=O)[O-].CC(=O)[O-].[Zn+2].[Zn+2].[Zn+2].c1ccc(-c2csc(NCCN(CCNc3nc(-c4ccccn4)cs3)CCNc3nc(-c4ccccn4)cs3)n2)nc1.c1ccc(-c2csc(NCCN(CCNc3nc(-c4ccccn4)cs3)CCNc3nc(-c4ccccn4)cs3)n2)nc1 [[L2Zn3]6+]", "Selectivity index (MCF10A)", 950.82),
    ("CC(=O)[O-].CC(=O)[O-].CC(=O)[O-].O=P([O-])([O-])[O-].[Zn+2].[Zn+2].[Zn+2].c1ccc(-c2csc(NCCN(CCNc3nc(-c4ccccn4)cs3)CCNc3nc(-c4ccccn4)cs3)n2)nc1.c1ccc(-c2csc(NCCN(CCNc3nc(-c4ccccn4)cs3)CCNc3nc(-c4ccccn4)cs3)n2)nc1 [[L2Zn3(PO4)]3+]", "Selectivity index (MCF10A)", 75.91),
    ("O=S(=O)([O-])[O-].[Cu+2].[Cu+2].[Cu+2].c1ccc(-c2csc(NCCN(CCNc3nc(-c4ccccn4)cs3)CCNc3nc(-c4ccccn4)cs3)n2)nc1.c1ccc(-c2csc(NCCN(CCNc3nc(-c4ccccn4)cs3)CCNc3nc(-c4ccccn4)cs3)n2)nc1 [[L2Cu3(SO4)]4+]", "Selectivity index (MCF10A)", 76.51),
    ("O=P(O)(O)Oc1ccccc1.[Zn+2].[Zn+2].[Zn+2].c1ccc(-c2csc(NCCN(CCNc3nc(-c4ccccn4)cs3)CCNc3nc(-c4ccccn4)cs3)n2)nc1.c1ccc(-c2csc(NCCN(CCNc3nc(-c4ccccn4)cs3)CCNc3nc(-c4ccccn4)cs3)n2)nc1 [[L2Zn3(O3POPh)]4+]", "Selectivity index (MCF10A)", 227.62),
]

----------
system: A549; assay: Chemosensitivity, 96 h continuous exposure, MTT assay; format: cell-based, human; settings: ratio of SI (MCF 10A), A549
I would appreciate it if you labelled entries satisfied when Selectivity indices relative to MCF10A, Ratio + anion:no anion is 0.2 or higher, otherwise not satisfied.

# molecule, class_assignment
rows = [
    ("O=S(=O)([O-])[O-].[Cu+2].[Cu+2].[Cu+2].c1ccc(-c2csc(NCCN(CCNc3nc(-c4ccccn4)cs3)CCNc3nc(-c4ccccn4)cs3)n2)nc1.c1ccc(-c2csc(NCCN(CCNc3nc(-c4ccccn4)cs3)CCNc3nc(-c4ccccn4)cs3)n2)nc1 [[L2Cu3(SO4)]4+]", "satisfied"),
    ("CC(=O)[O-].CC(=O)[O-].CC(=O)[O-].O=P([O-])([O-])[O-].[Zn+2].[Zn+2].[Zn+2].c1ccc(-c2csc(NCCN(CCNc3nc(-c4ccccn4)cs3)CCNc3nc(-c4ccccn4)cs3)n2)nc1.c1ccc(-c2csc(NCCN(CCNc3nc(-c4ccccn4)cs3)CCNc3nc(-c4ccccn4)cs3)n2)nc1 [[L2Zn3(PO4)]3+]", "not satisfied"),
    ("[Cu+2].[Cu+2].[Cu+2].c1ccc(-c2csc(NCCN(CCNc3nc(-c4ccccn4)cs3)CCNc3nc(-c4ccccn4)cs3)n2)nc1.c1ccc(-c2csc(NCCN(CCNc3nc(-c4ccccn4)cs3)CCNc3nc(-c4ccccn4)cs3)n2)nc1 [[L2Cu3]6+]", "satisfied"),
    ("O=S(=O)(O)O.[Zn+2].[Zn+2].[Zn+2].c1ccc(-c2csc(NCCN(CCNc3nc(-c4ccccn4)cs3)CCNc3nc(-c4ccccn4)cs3)n2)nc1.c1ccc(-c2csc(NCCN(CCNc3nc(-c4ccccn4)cs3)CCNc3nc(-c4ccccn4)cs3)n2)nc1 [[L2Zn3(SO4)]4+]", "not satisfied"),
]

----------
Below is a list of entries, each paired with its recorded log10(IC50) value.
tested on: ARPE-19 non-cancer cells; assay: Chemosensitivity, 96 h continuous exposure, MTT assay; format: cell-based, human; conditions: ARPE-19, 96 h, MTT, mean of at least 3 independent experiments; read-out: Mean IC50
recorded_metric: log10(IC50) (log10 of the value in µM)

# molecule, log10(IC50)
data = [
    ("O=C1[O][Pt]2([NH][C@@H]3CCCC[C@H]3[NH]2)[O]C1=O [Oxaliplatin, oxaliplatin, reference compound]", 0.49),
    ("N.N.[Cl][Pt][Cl] [Cisplatin, cisplatin, reference compound]", 0.81),
    ("[Cu+2].[Cu+2].[Cu+2].c1ccc(-c2csc(NCCN(CCNc3nc(-c4ccccn4)cs3)CCNc3nc(-c4ccccn4)cs3)n2)nc1.c1ccc(-c2csc(NCCN(CCNc3nc(-c4ccccn4)cs3)CCNc3nc(-c4ccccn4)cs3)n2)nc1 [[L2Cu3]6+]", 1.72),
    ("CC(=O)[O-].CC(=O)[O-].CC(=O)[O-].CC(=O)[O-].CC(=O)[O-].CC(=O)[O-].[Zn+2].[Zn+2].[Zn+2].c1ccc(-c2csc(NCCN(CCNc3nc(-c4ccccn4)cs3)CCNc3nc(-c4ccccn4)cs3)n2)nc1.c1ccc(-c2csc(NCCN(CCNc3nc(-c4ccccn4)cs3)CCNc3nc(-c4ccccn4)cs3)n2)nc1 [[L2Zn3]6+]", 2.20),
    ("[Mn+2].[Mn+2].[Mn+2].c1ccc(-c2csc(NCCN(CCNc3nc(-c4ccccn4)cs3)CCNc3nc(-c4ccccn4)cs3)n2)nc1.c1ccc(-c2csc(NCCN(CCNc3nc(-c4ccccn4)cs3)CCNc3nc(-c4ccccn4)cs3)n2)nc1 [[L2Mn3]6+]", 0.46),
    ("N.N.O=C([O-])C1(C(=O)[O-])CCC1.[Pt+2] [Carboplatin, carboplatin, reference compound]", 1.89),
]

----------
Below is a list of entries, each paired with its recorded IC50 value.
test system: HCT116 p53-/-; experiment: Chemosensitivity, 96 h continuous exposure, MTT assay; format: cell-based, human; settings: HCT116 p53-/-; read-out: Mean IC50 values
recorded_metric: IC50 (nM)

# compound, recorded_metric, value
data = [
    ("[Zn+2].c1ccc(-c2csc(NCCN(CCNc3nc(-c4ccccn4)cs3)CCNc3nc(-c4ccccn4)cs3)n2)nc1 [[LZn]2+]", "IC50", 68),
    ("CC(=O)[O-].CC(=O)[O-].CC(=O)[O-].O=P([O-])([O-])[O-].[Zn+2].[Zn+2].[Zn+2].c1ccc(-c2csc(NCCN(CCNc3nc(-c4ccccn4)cs3)CCNc3nc(-c4ccccn4)cs3)n2)nc1.c1ccc(-c2csc(NCCN(CCNc3nc(-c4ccccn4)cs3)CCNc3nc(-c4ccccn4)cs3)n2)nc1 [[L2Zn3(PO4)]3+]", "IC50", 78),
    ("O=S(=O)([O-])[O-].[Cu+2].[Cu+2].[Cu+2].c1ccc(-c2csc(NCCN(CCNc3nc(-c4ccccn4)cs3)CCNc3nc(-c4ccccn4)cs3)n2)nc1.c1ccc(-c2csc(NCCN(CCNc3nc(-c4ccccn4)cs3)CCNc3nc(-c4ccccn4)cs3)n2)nc1 [[L2Cu3(SO4)]4+]", "IC50", 78),
    ("O=S(=O)(O)O.[Zn+2].[Zn+2].[Zn+2].c1ccc(-c2csc(NCCN(CCNc3nc(-c4ccccn4)cs3)CCNc3nc(-c4ccccn4)cs3)n2)nc1.c1ccc(-c2csc(NCCN(CCNc3nc(-c4ccccn4)cs3)CCNc3nc(-c4ccccn4)cs3)n2)nc1 [[L2Zn3(SO4)]4+]", "IC50", 61),
    ("CC(=O)[O-].CC(=O)[O-].CC(=O)[O-].CC(=O)[O-].CC(=O)[O-].CC(=O)[O-].[Zn+2].[Zn+2].[Zn+2].c1ccc(-c2csc(NCCN(CCNc3nc(-c4ccccn4)cs3)CCNc3nc(-c4ccccn4)cs3)n2)nc1.c1ccc(-c2csc(NCCN(CCNc3nc(-c4ccccn4)cs3)CCNc3nc(-c4ccccn4)cs3)n2)nc1 [[L2Zn3]6+]", "IC50", 72),
    ("O=P([O-])([O-])Oc1ccccc1.[Cu+2].[Cu+2].[Cu+2].c1ccc(-c2csc(NCCN(CCNc3nc(-c4ccccn4)cs3)CCNc3nc(-c4ccccn4)cs3)n2)nc1.c1ccc(-c2csc(NCCN(CCNc3nc(-c4ccccn4)cs3)CCNc3nc(-c4ccccn4)cs3)n2)nc1 [[L2Cu3(O3POPh)]4+]", "IC50", 82),
    ("[Cu+2].[Cu+2].[Cu+2].c1ccc(-c2csc(NCCN(CCNc3nc(-c4ccccn4)cs3)CCNc3nc(-c4ccccn4)cs3)n2)nc1.c1ccc(-c2csc(NCCN(CCNc3nc(-c4ccccn4)cs3)CCNc3nc(-c4ccccn4)cs3)n2)nc1 [[L2Cu3]6+]", "IC50", 137),
    ("O=P(O)(O)Oc1ccccc1.[Zn+2].[Zn+2].[Zn+2].c1ccc(-c2csc(NCCN(CCNc3nc(-c4ccccn4)cs3)CCNc3nc(-c4ccccn4)cs3)n2)nc1.c1ccc(-c2csc(NCCN(CCNc3nc(-c4ccccn4)cs3)CCNc3nc(-c4ccccn4)cs3)n2)nc1 [[L2Zn3(O3POPh)]4+]", "IC50", 85),
]
